- System: Trypanosoma cruzi
- Protocol: T. cruzi growth inhibition on MRC-5 cells (LMPH)
- Assay type: cell-based
- Condition Context: MRC5
log10 IC50 for assorted molecules
Result Type: log10 IC50 (log10 of the value in nM)

>>> print(df.to_string())
                                   molecule  value
0  CC1(CN2CCC(Oc3ccc(F)cc3)CC2)CCn2cc([N+](=O)[O-])nc2O1 (centres unmarked)   2.77
1  O=C(c1ccc(F)cc1)N1CCN(CC2CCn3cc([N+](=O)[O-])nc3O2)CC1 (centres unmarked)   4.04
2  O=[N+]([O-])c1cn2c(n1)OC(COc1ccc(-c3ccc(F)cc3)nn1)CC2 (centres unmarked)   2.83
3  CC1(COc2ccc(-c3ccc(OC(F)(F)F)cc3)cn2)CCn2cc([N+](=O)[O-])nc2O1 (centres unmarked)   3.00
4  O=[N+]([O-])c1cn2c(n1)OC(CN1CCC(c3ccc(F)cc3)CC1)CC2 (centres unmarked)   3.46
5  CC1(COc2cccc(-c3ccc(F)cc3)n2)CCn2cc([N+](=O)[O-])nc2O1 (centres unmarked)   2.54
6  O=[N+]([O-])c1cn2c(n1)OC(COc1ncc(-c3ccc(F)nc3)cn1)CC2 (centres unmarked)   3.52
7  CC1(COCc2ccc(OC(F)(F)F)cc2)CCn2cc([N+](=O)[O-])nc2O1 (centres unmarked)   2.88

* * *

- Test system: M. tb, strain H37Rv
- Protocol: LORA minimum inhibitory concentration assay (hypoxic)
- Type: cell-based
- Condition Context: Mycobacterium tuberculosis
Binary call on MIC with cut-off 7 µM: strictly below means true, and equality or higher means false.

>>> df
                                    compound  assigned_label
 0  CC1(COc2ccc(-c3ccc(F)nc3)nc2)CCn2cc([N+](=O)[O-])nc2O1 (centres unmarked)           false
 1  CC1(COc2ccc(-c3ccc(F)nc3F)nc2)CCn2cc([N+](=O)[O-])nc2O1 (centres unmarked)           false
 2  CC1(COc2ccc(-c3ccc(F)cc3)nc2)CCn2cc([N+](=O)[O-])nc2O1 (centres unmarked)            true
 3  O=[N+]([O-])c1cn2c(n1)OC(COc1ccc(-c3ccc(F)cc3)cn1)CC2 (centres unmarked)            true
 4  CC1(COc2ccc(-c3ccc(F)nc3)cn2)CCn2cc([N+](=O)[O-])nc2O1 (centres unmarked)            true
 5  O=[N+]([O-])c1cn2c(n1)OC(COc1ncc(-c3ccc(F)cc3)cn1)CC2 (centres unmarked)            true
 6  O=[N+]([O-])c1cn2c(n1)OC(COc1ccc(OCc3ccccc3)cc1)CC2 (centres unmarked)           false
 7  CC1(COc2ccc(-c3ccc(F)nc3F)cn2)CCn2cc([N+](=O)[O-])nc2O1 (centres unmarked)            true
 8  O=[N+]([O-])c1cn2c(n1)OC(COc1ccc(-c3ccc(F)nc3F)cn1)CC2 (centres unmarked)            true
 9  CC1(COc2ncc(-c3ccc(F)cc3)cn2)CCn2cc([N+](=O)[O-])nc2O1 (centres unmarked)            true
10  O=[N+]([O-])c1cn2c(n1)OC(COc1ccc(OC(F)(F)F)cc1)CC2 (centres unmarked)            true
11  O=[N+]([O-])c1cn2c(n1)OC(COCc1ccc(-c3ccc(F)cc3)cc1)CC2 (centres unmarked)            true
12  O=[N+]([O-])c1cn2c(n1)OC(COc1ccc(-c3ccc(F)cc3F)cn1)CC2 (centres unmarked)            true
13  O=[N+]([O-])c1cn2c(n1)OC(COc1cccc(-c3ccc(F)cc3)n1)CC2 (centres unmarked)            true
14  O=[N+]([O-])c1cn2c(n1)OC(COC1CCN(c3ccc(F)cc3)CC1)CC2 (centres unmarked)           false
15  O=[N+]([O-])c1cn2c(n1)OC(COc1ccc(-c3ccc(C(F)(F)F)nc3)nc1)CC2 (centres unmarked)           false
16  O=[N+]([O-])c1cn2c(n1)OC(COc1ccc(-c3ccc(F)cc3)nn1)CC2 (centres unmarked)           false
